Assay: Tissue concentration of antibiotic after implantation
Type: in vivo
Settings: other: implantation, after about 2 hours, range worded for embodiments, see Table 7, read-out: tissue concentration
measured_endpoint: concentration at 2 h

[
  {
    "compound": "CN(C)c1ccc(O)c2c1C[C@H]1C[C@H]3[C@H](N(C)C)C(O)=C(C(N)=O)C(=O)[C@@]3(O)C(O)=C1C2=O [Minocycline]",
    "concentration at 2 h": "650 to 800 ng/mL"
  }
]

Consider the additional compound presented here.
Prompt line: If you can, please state the reported concentration at 2 h value of CO[C@H]1/C=C/O[C@@]2(C)Oc3c(C)c(O)c4c(O)c(c(/C=N/N5CCN(C)CC5)c(O)c4c3C2=O)NC(=O)/C(C)=C\C=C\[C@H](C)[C@H](O)[C@@H](C)[C@@H](O)[C@@H](C)[C@H](OC(C)=O)[C@@H]1C [Rifampin] .
Response line: 600 to 1400 ng/mL

* * *

Experiment: Tissue concentration of antibiotic after implantation
Type: in vivo
Conditions: other: implantation, after about 24 hours, range worded for embodiments, see Table 7, read-out: tissue concentration
Documented concentration at 24 h across a set of molecules

[
  {
    "molecule": "CN(C)c1ccc(O)c2c1C[C@H]1C[C@H]3[C@H](N(C)C)C(O)=C(C(N)=O)C(=O)[C@@]3(O)C(O)=C1C2=O",
    "concentration at 24 h": "1200 to 1900 ng/mL"
  }
]

Consider the additional molecule presented here.
Prompt line: If you can, please state the reported concentration at 24 h value of CO[C@H]1/C=C/O[C@@]2(C)Oc3c(C)c(O)c4c(O)c(c(/C=N/N5CCN(C)CC5)c(O)c4c3C2=O)NC(=O)/C(C)=C\C=C\[C@H](C)[C@H](O)[C@@H](C)[C@@H](O)[C@@H](C)[C@H](OC(C)=O)[C@@H]1C .
Response line: 2600 to 4200 ng/mL

* * *

Experiment: Tissue concentration of antibiotic after implantation
Type: in vivo
Settings: other: implantation, 2 h, Right, read-out: Average Tissue concentration
measured_endpoint: concentration at 2 h

[
  {
    "compound": "CN(C)c1ccc(O)c2c1C[C@H]1C[C@H]3[C@H](N(C)C)C(O)=C(C(N)=O)C(=O)[C@@]3(O)C(O)=C1C2=O [Minocycline]",
    "concentration at 2 h": "783 ng/mL"
  }
]

Consider the additional compound presented here.
Prompt line: If you can, please state the reported concentration at 2 h value of CO[C@H]1/C=C/O[C@@]2(C)Oc3c(C)c(O)c4c(O)c(c(/C=N/N5CCN(C)CC5)c(O)c4c3C2=O)NC(=O)/C(C)=C\C=C\[C@H](C)[C@H](O)[C@@H](C)[C@@H](O)[C@@H](C)[C@H](OC(C)=O)[C@@H]1C [Rifampin] .
Response line: 1270 ng/mL

* * *

Assay: Tissue concentration of antibiotic after implantation
Assay type: in vivo
Details: other: implantation, 2 h, Left, read-out: Average Tissue concentration
Documented concentration at 2 h across a set of molecules
Answer format: numeric, ng/mL implied, no suffix.

[
  {
    "molecule": "CO[C@H]1/C=C/O[C@@]2(C)Oc3c(C)c(O)c4c(O)c(c(/C=N/N5CCN(C)CC5)c(O)c4c3C2=O)NC(=O)/C(C)=C\\C=C\\[C@H](C)[C@H](O)[C@@H](C)[C@@H](O)[C@@H](C)[C@H](OC(C)=O)[C@@H]1C",
    "measured_endpoint": "concentration at 2 h",
    "unit_name": "ng/mL",
    "recorded_value": 765
  }
]

Consider the additional molecule presented here.
Prompt line: If you can, please state the reported concentration at 2 h value of CN(C)c1ccc(O)c2c1C[C@H]1C[C@H]3[C@H](N(C)C)C(O)=C(C(N)=O)C(=O)[C@@]3(O)C(O)=C1C2=O .
Response line: 700
